biological target: ROMK (Homo sapiens (Human)); experiment: Thallium Flux Assay; type: cell-based
measurement.kind: log10(IC50) (log10 of the value in nM)

molecule	measured
O=C1OCC(N2CCOC3(CCN(C[C@@H](O)c4ccc(-n5cnnn5)nc4)CC3)C2)=C1Cl [Example 24B]	1.54
CC1=C(N2CCNC3(CCN(CC(O)c4ccc(-n5cnnn5)nc4C)CC3)C2=O)COC1=O (single isomer, unassigned) [Example 2A]	1.56
CC1=C(N2CC3(CCN(C[C@H](O)c4ccc5c(c4C)COC5=O)CC3)OCC2=O)COC1=O [Example 59]	2.84
CC1=C(N2CCOC3(CCN(CC(O)c4ccc(-n5cnnn5)cc4C)CC3)C2)COC1=O (single isomer, unassigned) [Example 31B]	1.41
CC1=C(N2CCOC3(CCN(CC(O)c4cnc(-n5cnnn5)cn4)CC3)C2=O)COC1=O (single isomer, unassigned) [Example 18A]	1.84
O=C1C=C(N2CCOC3(CC4CCC(C3)N4CCc3ccc(-n4cnnn4)nn3)C2=O)CO1 (stereo not shown) [Example 54]	0.58
CC1=C(N2CCOC3(CCN(C[C@@H](F)c4ccc(-n5cnnn5)nc4)CC3)C2=O)COC1=O [Example 56]	1.69

---

target: ROMK (Homo sapiens (Human), UniProt P48048); test: Thallium Flux Assay
Sequence (P48048 whole entry): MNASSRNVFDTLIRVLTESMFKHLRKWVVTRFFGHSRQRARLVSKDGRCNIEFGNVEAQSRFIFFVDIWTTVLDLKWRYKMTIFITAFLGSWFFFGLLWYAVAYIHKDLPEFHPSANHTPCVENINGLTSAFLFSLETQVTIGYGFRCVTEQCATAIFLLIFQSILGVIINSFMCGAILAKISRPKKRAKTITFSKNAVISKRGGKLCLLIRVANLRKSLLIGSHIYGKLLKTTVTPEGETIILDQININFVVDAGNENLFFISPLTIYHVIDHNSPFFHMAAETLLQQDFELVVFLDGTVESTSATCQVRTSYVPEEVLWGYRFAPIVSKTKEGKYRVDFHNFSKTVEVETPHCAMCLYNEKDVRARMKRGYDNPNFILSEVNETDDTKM
Counter-ions that a name gives are not always drawn.
Below, each entry is listed alongside its reported log10 IC50.
measurement.kind: log10 IC50 (log10 of the value in nM)

molecule	log10 IC50
CC1=C(N2C(=O)C3(CCN(C[C@@H](O)c4ccc(-n5cnnn5)nc4)CC3)OCC2C)COC1=O (single isomer, unassigned) [Example 10A]	2.19
CC1=C(N2CCOC3(CCN(CC(O)c4cnc(-n5cnnn5)cn4)CC3)C2=O)COC1=O (single isomer, unassigned) [Example 18B]	2.04
CC1=C(N2CCOC3(CCN(CC(O)c4cnc(-n5cnnn5)nc4)CC3)C2=O)COC1=O (single isomer, unassigned) [Example 46A]	1.75
CC1=C(N2CC(F)(F)OC3(CCN(C[C@H](O)c4ccc(-n5cnnn5)nc4)CC3)C2)COC1=O	2.62
Cc1c([C@@H](O)CN2CCC3(CC2)CN(C2=CC(=O)OC2)C(=O)O3)ccc2c1COC2=O	2.50
Cc1c([C@@H](O)CN2C3CCC2CC2(C3)OCCN(C3=CC(=O)OC3)C2=O)ccc2c1COC2=O (some centres unmarked)	1.47
CC1=C(N2CCN(C)C3(CCN(C[C@H](O)c4ccc5c(c4C)COC5=O)CC3)C2=O)COC1=O	1.63
CC1=C(N2CC3(CCN(CC(O)c4ccc(-n5cnnn5)nc4C)CC3)OCC2=O)COC1=O (single isomer, unassigned)	1.68
CC1=C(N2CCNC3(CCN(CC(O)c4ccc(-n5cnnn5)cc4)CC3)C2=O)COC1=O (single isomer, unassigned) [Example 5A]	1.63
Cc1cc(-n2cnnn2)ccc1C(O)CN1CCC2(CC1)CN(C1=CC(=O)OC1)CCO2 (single isomer, unassigned) [Example 30B]	1.87
CC1=C(N2CCNC3(CCN(C[C@H](O)c4ccc5c(c4C)COC5=O)CC3)C2=O)COC1=O [Example 1, dihydrochloride]	1.84
Cc1c([C@@H](O)CN2CCC3(CC2)CN(C2=C(Cl)C(=O)OC2)CCO3)ccc2c1COC2=O	1.77
CC1=C(N2CCOC3(CCN(C[C@H](F)c4ccc(-n5cnnn5)nc4)CC3)C2=O)COC1=O	1.77
COc1cc(-n2cnnn2)ccc1C(O)CN1CCC2(CC1)CN(C1=C(C)C(=O)OC1)CCO2 (single isomer, unassigned) [Example 33B]	1.96

---

target: ROMK (Homo sapiens (Human)); assay: Thallium Flux Assay

compound	IC50 / nM
CC1=C(N2CCOC3(CCN(C[C@H](O)c4ccc5c(c4C)COC5=O)CC3)C2=O)COC1=O	13.3
Cc1nc(-n2cnnn2)ccc1C(O)CN1CCC2(CC1)CCN(C1=CC(=O)OC1)C(=O)O2 (single isomer, unassigned)	65.5
CC1=C(N2CCOC3(CCCN(C[C@@H](O)c4ccc(-n5cnnn5)nc4)CC3)C2=O)COC1=O (stereo partly shown)	280
CC1=C(N2CCN(C)C3(CCN(CC(O)c4ccc(-n5cnnn5)nc4C)CC3)C2=O)COC1=O (single isomer, unassigned) [Example 35B]	144
CC1=C(N2CC(F)(F)OC3(CCN(C[C@@H](O)c4ccc(-n5cnnn5)nc4)CC3)C2)COC1=O	688
CC1COC2(CCN(C[C@H](O)c3ccc(-n4cnnn4)nc3)CC2)C(=O)N1C1=CC(=O)OC1 (single isomer, unassigned) [Example 13B]	415
CC1=C(N2CCNC3(CCN(CC(O)c4cnc(-n5cnnn5)cn4)CC3)C2=O)COC1=O (single isomer, unassigned) [Example 3B]	142
CC1=C(N2CCOC3(CCN(CC(O)c4cnc(-n5cnnn5)cn4)CC3)C2)COC1=O (single isomer, unassigned) [Example 48A]	462
Cc1c([C@@H](O)CN2CCC3(CC2)OCC(C)N(C2=CC(=O)OC2)C3=O)ccc2c1COC2=O (single isomer, unassigned)	264
CC1=C(N2C(=O)C3(CCN(C[C@H](O)c4ccc5c(c4C)COC5=O)CC3)OCC2C)COC1=O (single isomer, unassigned)	267
CC1=C(N2CCOC3(CCN(CC(O)c4cnc(-n5cnnn5)nc4)CC3)C2=O)COC1=O (single isomer, unassigned) [Example 46B]	58.1
CC1=C(N2CCOC3(CCN(CC(O)c4ccc(-n5cnnn5)nc4C)CC3)C2)COC1=O (single isomer, unassigned) [Example 22B]	117
CC1=C(N2CCNC3(CCN(CC(O)c4ccc(-n5cnnn5)cc4)CC3)C2=O)COC1=O (single isomer, unassigned) [Example 5B]	36.8

---

Below, each entry is listed alongside its reported pIC50.
target: ROMK (Homo sapiens (Human), UniProt P48048); test: Thallium Flux Assay
pIC50: −log10 of the molar value.

compound	experimental.target	pIC50
CC1=C(N2CCOC3(CCN(CC(O)c4ccc(-n5cnnn5)cn4)CC3)C2=O)COC1=O (single isomer, unassigned)	ROMK (Homo sapiens (Human), UniProt P48048)	7.43
CC1=C(N2CCOC3(CCN(C[C@H](F)c4ccc5c(c4C)COC5=O)CC3)C2=O)COC1=O	ROMK (Homo sapiens (Human), UniProt P48048)	6.66
CC1=C(N2CCNC3(CCN(C[C@H](O)c4ccc(-n5cnnn5)nc4)CC3)C2=O)COC1=O	ROMK (Homo sapiens (Human), UniProt P48048)	7.42
O=C1C=C(N2CCOC3(CCN(C[C@H](O)c4ccc(-n5cnnn5)nc4)CC3)C2=O)CO1	ROMK (Homo sapiens (Human), UniProt P48048)	6.79

---

Below, each entry is listed alongside its reported IC50.
molecular target: ROMK (Homo sapiens (Human)); assay: Thallium Flux Assay; assay type: cell-based
measurement.kind: IC50

molecule	experimental.target	measurement.kind	measured
CC1=C(N2CCOC3(CCN(CCc4ccc(-n5cnnn5)nc4)CC3)C2=O)COC1=O	ROMK (Homo sapiens (Human))	IC50	13.1 nM
O=C1C=C(N2CCOC3(CCN(C[C@H](O)c4ccc(-n5cnnn5)nc4)CC3)C2)CO1 [Example 19A]	ROMK (Homo sapiens (Human))	IC50	80.6 nM
CC1COC2(CCN(C[C@@H](O)c3ccc(-n4cnnn4)nc3)CC2)C(=O)N1C1=CC(=O)OC1 (single isomer, unassigned) [Example 13A]	ROMK (Homo sapiens (Human))	IC50	230 nM
Cc1cc(-n2cnnn2)ccc1C(O)CN1CCC2(CC1)CN(C1=CC(=O)OC1)CCO2 (single isomer, unassigned) [Example 30A]	ROMK (Homo sapiens (Human))	IC50	477 nM

---

target: ROMK (Homo sapiens (Human)); test: Thallium Flux Assay
pIC50: −log10 of the molar value.

molecule	pIC50
CC1=C(N2C(=O)C3(CCN(C[C@H](O)c4ccc(-n5cnnn5)nc4)CC3)OCC2C)COC1=O (single isomer, unassigned) [Example 10B]	6.51
CC1=C(N2CCOC3(CCN(C[C@@H](O)c4ccc(-n5cnnn5)nc4)CC3)C2=O)COC1=O [Example 6B]	7.92
CC1=C(N2CCOC3(CCN(CC(O)c4cnc(-n5cnnn5)cn4)CC3)C2)COC1=O (single isomer, unassigned) [Example 48B]	6.61
CC1=C(N2CCCOC3(CCN(C[C@H](O)c4ccc5c(c4C)COC5=O)CC3)C2=O)COC1=O [Example 37]	6.54
Cc1nc(-n2cnnn2)ccc1C(O)CN1CCC2(CC1)CN(C1=CC(=O)OC1)CCO2 (single isomer, unassigned) [Example 20A]	7.21
CC1=C(N2CCOC3(CCN(CC(O)c4ccc(-n5cnnn5)nc4C)CC3)C2)COC1=O (single isomer, unassigned) [Example 22A]	7.47
O=C1C=C(N2CCC3(CCN(C[C@H](O)c4ccc(-n5cnnn5)nc4)CC3)OC2=O)CO1 [Example 26A]	6.77

---

Below, each entry is listed alongside its reported pIC50.
target: Kir1.1 (ROMK1) (Homo sapiens (Human), UniProt P48048); assay: Electrophysiology Assay (whole cell voltage clamp, IonWorks Quattro); conditions: Chinese hamster ovary cells stably expressing Kir1.1; fractional block at voltage step to 0 mV; 6 min compound incubation
Sequence (P48048 whole entry): as above
pIC50: −log10 of the molar value.

molecule	pIC50
CC1=C(N2CCOC3(CCN(C[C@H](O)c4ccc5c(c4C)COC5=O)CC3)C2)COC1=O	7.11
CC1=C(N2CCOC3(CCN(C[C@@H](O)c4ccc(-n5cnnn5)nc4)CC3)C2=O)COC1=O	8.42
CC1=C(N2CCOC3(CCN(CC(O)c4ccc(-n5cnnn5)nc4C)CC3)C2=O)COC1=O (stereo not shown)	7.89
CC1=C(N2CCNC3(CCN(C[C@H](O)c4ccc(-n5cnnn5)nc4)CC3)C2=O)COC1=O	7.34
CC1=C(N2CCNC3(CCN(CC(O)c4ccc(-n5cnnn5)nc4C)CC3)C2=O)COC1=O (single isomer, unassigned)	7.59
CC1=C(N2CCOC3(CCN(CC(O)c4cnc(-n5cnnn5)nc4)CC3)C2=O)COC1=O (single isomer, unassigned) [Example 46A]	7.29
CC1=C(N2CCOC3(CCN(CCc4ccc(-n5cnnn5)nn4)CC3)C2=O)COC1=O	8.14
O=C1C=C(N2CCOC3(CCN(C[C@@H](O)c4ccc(-n5cnnn5)nc4)CC3)C2)CO1 [Example 19B]	7.00
CC1=C(N2CCOC3(CCN(CC(O)c4cnc(-n5cnnn5)cn4)CC3)C2=O)COC1=O (single isomer, unassigned) [Example 18A]	7.92
Cc1nc(-n2cnnn2)ccc1C(O)CN1CCC2(CC1)CN(C1=CC(=O)OC1)CCO2 (single isomer, unassigned) [Example 20B]	7.15
CC1=C(N2CCN(C)C3(CCN(C[C@H](O)c4ccc5c(c4C)COC5=O)CC3)C2=O)COC1=O	7.57
CC1=C(N2CCOC3(CCN(CC(O)c4ccc(-n5cnnn5)nc4C)CC3)C2)COC1=O (single isomer, unassigned) [Example 22A]	7.96
Cc1c([C@@H](O)CN2C3CCC2CC2(C3)OCCN(C3=CC(=O)OC3)C2=O)ccc2c1COC2=O (stereo partly shown)	7.87
O=C1C=C(N2CCOC3(CCN(C[C@H](O)c4ccc(-n5cnnn5)nc4)CC3)C2)CO1 [Example 19A]	7.25
Cc1nc(-n2cnnn2)ccc1C(O)CN1CCC2(CC1)CN(C1=CC(=O)OC1)CCO2 (single isomer, unassigned) [Example 20A]	7.43
CC1=C(N2CCOC3(CCN(C[C@H](O)c4ccc(-n5cnnn5)nc4)CC3)C2=O)COC1=O	8.18
CC1=C(N2CCOC3(CCN(CC(O)c4ccc(-n5cnnn5)nc4C)CC3)C2)COC1=O (single isomer, unassigned) [Example 22B]	7.54
CC1=C(N2CCOC3(CCN(C[C@H](O)c4ccc5c(c4C)COC5=O)CC3)C2=O)COC1=O	8.19
Cc1c([C@@H](O)CN2CCC3(CC2)CN(C2=CC(=O)OC2)C(=O)O3)ccc2c1COC2=O	6.49

The values you see were collected from patent US9850245B2.
